Parameter IC50, tested on UniProtKB P52699, listed per item.
Sequence (P52699 whole entry, looked up, species assumed): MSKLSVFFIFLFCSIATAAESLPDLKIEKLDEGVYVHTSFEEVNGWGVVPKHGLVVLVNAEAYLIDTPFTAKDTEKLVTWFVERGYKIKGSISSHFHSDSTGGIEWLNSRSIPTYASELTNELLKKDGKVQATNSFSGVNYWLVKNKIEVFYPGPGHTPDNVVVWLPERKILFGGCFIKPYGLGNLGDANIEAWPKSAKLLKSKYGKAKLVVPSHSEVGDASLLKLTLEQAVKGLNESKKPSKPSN
Give the value in nM but do not write nM after it.

{"columns": ["Compound", "Target", "IC50, nM"],
 "data": [
  ["CC(=O)N[C@H]1CCN(c2ccc(S(=O)(=O)N[C@@H]3CCNC3)c(S(N)(=O)=O)c2-c2nnn[nH]2)C1", "UniProtKB P52699", 15.9],
  ["NCCS(=O)(=O)c1ccc(N2CCOCC2)c(-c2nnn[nH]2)c1S(N)(=O)=O", "UniProtKB P52699", 6.5],
  ["CC(N)C1CCN(c2ccc(S(=O)(=O)NC[C@H](O)CN)c(S(N)(=O)=O)c2-c2nnn[nH]2)CC1 (stereo partly shown)", "UniProtKB P52699", 2.11]
]}

Continue with the compound presented below.
Value sought: IC50, system UniProtKB P52699, item NCCC1CCN(c2ccc(S(=O)(=O)NC[C@H](O)CN)c(S(N)(=O)=O)c2-c2nn[nH]n2)CC1 . Result: 5.79
